Values from ChEMBL document CHEMBL5308504

# TARGET: Bromodomain-containing protein 4 (Homo sapiens)
# APPLIED CONDITIONS: Compound concentration 20.0 uM, Protein concentration 2.0 uM, Result type QC Liability
Assign Condition met whenever ΔTm does not fall below -1 °C; assign Condition not met whenever it does.

Check out these entries, answers already filled in.
{"MOLECULE": "CN(C)[C@H]1CCc2nc(NC(=O)c3cccc(Cn4cc(-c5ccc(C#N)cc5)cn4)c3)sc2C1", "ASSIGNED LABEL": "Condition not met"}
{"MOLECULE": "CN1C(=O)Cc2ccc(-c3ccc(C[C@@H](C#N)NC(=O)[C@@H]4N[C@H]5CC[C@@H]4C5)c(F)c3)cc21", "ASSIGNED LABEL": "Condition not met"}
{"MOLECULE": "COc1cc(F)ccc1-c1cc(Nc2cc(CS(C)(=N)=O)ccn2)ncc1F (centres undefined)", "ASSIGNED LABEL": "Condition met"}
{"MOLECULE": "COCCNC1CCC(Nc2cc(-c3csc(NCC4(C#N)CCOCC4)n3)c(Cl)cn2)CC1 (centres undefined)", "ASSIGNED LABEL": "Condition met"}

INPUT: Does the reported ΔTm for `Cn1cc(NC(=O)c2ccc3nc4n(c3c2)CCCNC4=O)nc1C(=O)NC1CCCC1` fall at or above the -1 °C mark?
OUTPUT: Condition not met

INPUT: Does the reported ΔTm for `Cc1c(NC(=O)c2ccc(C(C)(C)C)cc2)cccc1-c1cn(C)c(=O)c(Nc2ccc(C(=O)N3CCOCC3)cc2)n1` fall at or above the -1 °C mark?
OUTPUT: Condition not met

INPUT: Does the reported ΔTm for `CC(C)(O)c1cn(-c2ccc(-c3cccc(S(C)(=O)=O)c3)cc2)c(C(C)(C)c2ccccc2Cl)n1` fall at or above the -1 °C mark?
OUTPUT: Condition not met

INPUT: Does the reported ΔTm for `CC(C)NC(=O)[C@H]1CCC[C@H]1Nc1nc(Nc2ccc(CN(C)C)cc2)ncc1Br` fall at or above the -1 °C mark?
OUTPUT: Condition not met

INPUT: Does the reported ΔTm for `NS(=O)(=O)c1ccc(Nc2nc(OCC3CCCCC3)c3nc[nH]c3n2)cc1` fall at or above the -1 °C mark?
OUTPUT: Condition met
